test system: HeLa cells; assay: Cytotoxicity assay (CCK-8); format: cell-based, human; settings: 48 h
Bridge positions count the residues as written; N and C are the ends. Square brackets hold non-standard residues; d marks the D form. Peptide text beside a SMILES is read from it. * marks the point of attachment. Myristoyl = CCCCCCCCCCCCCC(=O)*; Orn = NCCC[C@H](N)C(=O)O; Dab = NCC[C@H](N)C(=O)O; Dap = NC[C@H](N)C(=O)O
attribute-measured: MIC (μg/mL) Hela

compound | obs-value
CCCCCCCCCCCCCC(=O)N[C@@H](CN)C(=O)N[C@@H]1C(=O)N[C@@H](CC(C)C)C(=O)N[C@@H](CO)C(=O)N[C@@H](CCN)C(=O)N[C@@H](CN)C(=O)N[C@@H](Cc2ccccc2)C(=O)N[C@@H]([C@@H](C)CC)C(=O)N[C@@H](CCCN)C(=O)N[C@@H](CC(N)=O)C(=O)N[C@@H](Cc2ccccc2)C(=O)O[C@@H]1C [synAQU5-C2] (Myristoyl-[Dap]TLS[Dab][Dap]FI[Orn]NF; ester 2-C) | > 64 µg/mL

Then this compound:
Q. # query: MIC (μg/mL) Hela of entry CCCCCCCCCCCCCC(=O)N[C@@H](CCCCN)C(=O)N[C@@H](CCCNC(=N)N)C(=O)N[C@@H](CC(C)C)C(=O)N[C@@H](C)C(=O)N[C@@H](CC(C)C)C(=O)N[C@H](C(=O)N[C@@H](CC(=O)O)C(=O)N[C@@H](CC(=O)O)C(=O)N[C@H](C(=O)N[C@@H](CC(N)=O)C(=O)N[C@H](C(=O)N[C@H](Cc1ccccc1)C(=O)N[C@@H](CC(N)=O)C(=O)O)C(C)C)C(C)C)[C@@H](C)O [synAQU7-L] (Myristoyl-KRLALTDDVNV[dF]N-OH)
A. > 64 µg/mL

====

tested on: HeLa cells; experiment: Cytotoxicity assay (CCK-8); type: cell-based, human; conditions: 48 h
Bridge positions count the residues as written; N and C are the ends. Square brackets hold non-standard residues; d marks the D form. Peptide text beside a SMILES is read from it. * marks the point of attachment. Octanoyl(3R-OH) = CCCCC[C@@H](O)CC(=O)*; Myristoyl = CCCCCCCCCCCCCC(=O)*; Dab = NCC[C@H](N)C(=O)O; Dap = NC[C@H](N)C(=O)O
Form field: MIC (μg/mL) Hela (one value per entry).

The following compounds have reported results that may help.
compound | assay-system | MIC (μg/mL) Hela
CCCCCCCCCCCCCC(=O)N[C@H](C)C(=O)N[C@H](C)C(=O)N[C@H](Cc1ccccc1)C(=O)N[C@H](C(=O)N[C@@H](CCCNC(=N)N)C(=O)O)[C@@H](C)O [synAQU1-L] (Myristoyl-[dA][dA][dF]TR-OH) | HeLa cells | > 64 µg/mL
CCCCC[C@@H](O)CC(=O)N[C@H]1CNC(=O)[C@H](CC(=O)O)NC(=O)[C@H](C(C)C)NC(=O)[C@@H](CC(C)C)NC(=O)[C@H](CN)NC(=O)[C@@H](Cc2ccccc2)NC(=O)[C@H]([C@@H](C)O)NC(=O)[C@H](CCN)NC(=O)[C@H](Cc2ccccc2)NC1=O [synAQU3-C1] ({Octanoyl(3R-OH)}-[Dap]F[Dab]T[dF][Dap][dL]VD; lactam 1-C (inferred)) | HeLa cells | > 64 µg/mL

Q. # query: MIC (μg/mL) Hela of entry CCCCC[C@@H](O)CC(=O)N[C@@H](CN)C(=O)N[C@@H](Cc1ccccc1)C(=O)N[C@H]1CCNC(=O)[C@H](CC(=O)O)NC(=O)[C@H](C(C)C)NC(=O)[C@@H](CC(C)C)NC(=O)[C@H](CN)NC(=O)[C@@H](Cc2ccccc2)NC(=O)[C@H]([C@@H](C)O)NC1=O [synAQU3-C3] ({Octanoyl(3R-OH)}-[Dap]F[Dab]T[dF][Dap][dL]VD; lactam 3-C (inferred))
A. > 64 µg/mL
